Assay: Blood clearance in Beagle dog at 0.5 mg/kg, iv and 1 mg/kg, po measured up to 7 hrs by LC-MS/MS analysis
Format: ADME, organism-based, Canis lupus familiaris
# clearance listing for each entry below

[
  {
    "Smiles Code": "CNC(=O)c1cc(C(=O)N[C@H]2[C@@H]3C[C@@H](O)C[C@@H]32)c([C@@H](C)c2ccccc2)o1",
    "Units Of Measure": "mL/min/kg",
    "clearance": 5
  },
  {
    "Smiles Code": "CNC(=O)c1cc(C(=O)N[C@H]2CC[C@H](OC)CC2)n([C@@H](C)c2ccccc2)n1",
    "Units Of Measure": "mL/min/kg",
    "clearance": 6
  },
  {
    "Smiles Code": "CNC(=O)c1cc(C(=O)N[C@H]2CC[C@H](O)CC2)c([C@@H](C)c2cccc(Cl)c2)o1",
    "Units Of Measure": "mL/min/kg",
    "clearance": 3.6
  },
  {
    "Smiles Code": "CNC(=O)c1cc(C(=O)N[C@H]2[C@@H]3COC[C@@H]32)c([C@@H](C)c2ccccc2)o1",
    "Units Of Measure": "mL/min/kg",
    "clearance": 2.9
  },
  {
    "Smiles Code": "CNC(=O)c1cc(C(=O)N[C@H]2CC[C@H](O)CC2)c([C@@H](C)c2ccccc2)o1",
    "Units Of Measure": "mL/min/kg",
    "clearance": 1.9
  },
  {
    "Smiles Code": "CNC(=O)c1cc(C(=O)N[C@H]2CC[C@H](O)CC2)n([C@@H](C)c2ccccc2)n1",
    "Units Of Measure": "mL/min/kg",
    "clearance": 1
  }
]

Taken from ChEMBL document CHEMBL4834464.
